Reported EC50 by item:
- SUBJECT_OF_TEST: glucagon receptor (UniProt P47871 26-477, limits assumed)
- Sequence (P47871 26-477 limits assumed): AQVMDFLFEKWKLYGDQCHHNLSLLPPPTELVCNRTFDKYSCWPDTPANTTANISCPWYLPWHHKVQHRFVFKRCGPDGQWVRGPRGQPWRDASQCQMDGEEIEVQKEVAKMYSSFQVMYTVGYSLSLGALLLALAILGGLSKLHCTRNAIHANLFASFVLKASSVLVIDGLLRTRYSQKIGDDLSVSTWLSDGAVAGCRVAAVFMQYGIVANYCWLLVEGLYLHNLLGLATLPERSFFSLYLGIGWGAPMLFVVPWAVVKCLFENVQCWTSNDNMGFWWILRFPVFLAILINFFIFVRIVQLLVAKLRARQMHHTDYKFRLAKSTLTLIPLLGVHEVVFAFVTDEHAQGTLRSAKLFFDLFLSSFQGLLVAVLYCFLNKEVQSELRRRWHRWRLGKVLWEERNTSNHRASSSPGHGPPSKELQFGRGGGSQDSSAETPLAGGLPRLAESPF
- ASSAY_EXPLANATION: cell-based or functional assay
Starred links: 1 amine or outer side, 2 acyl side, 3 side chain; linkers in the order of their positions; H or OH if unused. Non-standard residues stand in square brackets, D forms with d. Groups on a side chain read outwards from the residue. No end group written: not given here. *: point of attachment. γGlu = O=C(O)[C@H](CCC(=O)[*:2])N[*:1]; Palmitoyl = CCCCCCCCCCCCCCCC(=O)*; Aib = CC(C)(N)C(=O)O
METRIC_NAME: EC50 (pM)

1. H[Aib]EGTFTSDK([γGlu-γGlu-Palmitoyl])SKYLDEQAAKEFIAWLMNT [Chi-2, AIB2, E3, Lys10 γE-γE-C16 (SEQ ID NO: 648)]    2920
2. H[dS]QGTFTSDK([γGlu-Palmitoyl])SKYLDEQAAKEFIAWLMNT [Chi-2, d-Ser2, Lys10 γE-C16 (SEQ ID NO: 643)]    11
3. XSQGTFTSDYSKYLDERRAKDFVQWLMNK (DMIA at 1; E16/K20 lactam; Lys 29 with C16 acyl via γ-Glu-γ-Glu) [DMIA1, E16/K20 lactam, Lys29 γE-γE-C16 (SEQ ID NO: 654)]    25
4. H[dS]QGTFTSDK([γGlu-γGlu-Palmitoyl])SKYLDEQAAKEFIAWLMNT [Chi-2, d-Ser2, Lys10 γE-γE-C16 (SEQ ID NO: 644)]    8
